Assign Tm to each entry below.
protocol_text: melting temperature; fluorescence melt of hairpins on a sequencing array, two-state fit, raised by 9.35 °C to match UV melts
experimental_conditions: sodium 0.088 M
Write the value in °C as a bare number.

Recall and state the measured Tm for GATCAAACTTTGATC ((((((...)))))) .
41.9

Recall and state the measured Tm for GCTTGTGGAAACACAAAC (.(((((....))))).) .
36.3

Recall and state the measured Tm for GCGAGAGTCGC ((((...)))) .
55.5

Recall and state the measured Tm for GGCTAGCGAAAGCTGCC (((.(((....)))))) .
64.3

Recall and state the measured Tm for GTTGTCGAAAGACGGAAC ((((((....)))..))) .
31.3

Recall and state the measured Tm for GTCGGATCGAAAGATGAC (((..(((....)))))) .
31.7

Recall and state the measured Tm for CCTTCGAAAGAAGG (((((....))))) .
55.2

Recall and state the measured Tm for GTTAACACGAAAGTGAAC (((..(((....)))))) .
25.3

Recall and state the measured Tm for GAACAGGGAAACCCGTTC ((((.((....)).)))) .
41.8

Recall and state the measured Tm for GCGTCGCCGAAAGGCCGC (((..(((....)))))) .
57.1

Recall and state the measured Tm for GGTGCTGGAAACAGTACC (((.(((....))).))) .
53.5

Recall and state the measured Tm for GGGAGGCGAAAGCCCCCC (((.(((....))).))) .
64.8

Recall and state the measured Tm for GGTAGATCGAAAGATACC (((..(((....)))))) .
33.1

Recall and state the measured Tm for GCATTTGCGAAAGCATGC (((..(((....)))))) .
44.9

Recall and state the measured Tm for GCAGTAGGAAACTACTAC (.(((((....))))).) .
32.2

Recall and state the measured Tm for GTAAACGAAAGTTGTTAC ((((((....)))..))) .
23.7

Recall and state the measured Tm for GATCATGCATATGATC ((((((....)))))) .
55.4

Recall and state the measured Tm for GATCTGCGAAAGCATATC (((.(((....))).))) .
41.1

Recall and state the measured Tm for GATCGATTCCTCGATC ((((((....)))))) .
52.3

Recall and state the measured Tm for GGTTCCCGAAAGGGTACC (((.(((....))).))) .
57.5

---

Assign Tm to each entry below.
protocol_text: melting temperature; fluorescence melt of hairpins on a sequencing array, two-state fit, raised by 9.35 °C to match UV melts
experimental_conditions: sodium 0.088 M
Write the value in °C as a bare number.

Recall and state the measured Tm for GACTCGGGAAACCGAATC ((.((((....)))).)) .
35.4

Recall and state the measured Tm for GTCGATGGAAACGTCGAC (((((.(....).))))) .
54.8

Recall and state the measured Tm for GCAAGCGAAAGCTGCTGC ((((((....)))..))) .
67.2

Recall and state the measured Tm for GGGCACCGAAAGGTCCC (((.(((....)))))) .
54.5

Recall and state the measured Tm for GGTTGAGGAAACTCAGTC (..((((....))))..) .
30.9

Recall and state the measured Tm for GCGGGACTCCGC ((((....)))) .
67.7

Recall and state the measured Tm for GGGTTTGCGAAAGCACCC (((..(((....)))))) .
47.3

Recall and state the measured Tm for GCAAGGGGAAACCCTCAC (..((((....))))..) .
25.2

Recall and state the measured Tm for GATCGGGCGGCCGATC ((((((....)))))) .
61.8

Recall and state the measured Tm for GTGGGTGAAAACCCAC ((((((....)))))) .
67.3

Recall and state the measured Tm for GTATTGAAAAATAC (((((....))))) .
33.1

Recall and state the measured Tm for GGTTATGGAAACGTAACC (((((.(....).))))) .
45.8

---

protocol_text: melting temperature; fluorescence melt of hairpins on a sequencing array, two-state fit, raised by 9.35 °C to match UV melts
experimental_conditions: sodium 0.088 M
readout: Tm (°C)
Write the value in °C as a bare number.

Recall and state the measured Tm for GGGTTTGGAAACAGACCC ((((.((....)).)))) .
48.8

Recall and state the measured Tm for GCCACCGGAAACGGTGAC (.(((((....))))).) .
48.8

Recall and state the measured Tm for GATCAGCGTCCTGATC ((((((....)))))) .
49

Recall and state the measured Tm for GTTGTCCGAAAGGAGAAC (((.(((....))).))) .
51.2

Recall and state the measured Tm for GTCCGACGAAAGTCAGAC (((.(((....))).))) .
50

---

protocol_text: folding enthalpy; higher = less favourable; fluorescence melt of hairpins on a sequencing array, two-state fit
experimental_conditions: sodium 0.088 M
readout: folding enthalpy (kcal/mol)
Write the value in kcal/mol as a bare number.

Recall and state the measured folding enthalpy for GCGCCGCGAAAGCGCAGC ((..(((....)))..)) .
-14.1

Recall and state the measured folding enthalpy for GACGTAGAAATACGTC ((((((....)))))) .
-38.5

Recall and state the measured folding enthalpy for GGCATCGAAAGATCAGCC ((((((....)))..))) .
-25

Recall and state the measured folding enthalpy for GCGGGTTCGAAAGAACGC (((..(((....)))))) .
-12.3

Recall and state the measured folding enthalpy for GGAGGGGCGAAAGCCTCC (((..(((....)))))) .
-13.4

Recall and state the measured folding enthalpy for GGACTAGGAAACTGGTCC ((((.((....)).)))) .
-41.6

Recall and state the measured folding enthalpy for GATCTACGTATAGATC ((((((....)))))) .
-33.8

Recall and state the measured folding enthalpy for GACCGCGAAAGCGTCGTC ((((((....)))..))) .
-13.5

Recall and state the measured folding enthalpy for GGTCATGAAAATGACC ((((((....)))))) .
-38

Recall and state the measured folding enthalpy for GTCGGCGAAAGCCTGGAC ((((((....)))..))) .
-15.2

Recall and state the measured folding enthalpy for AAGATGAAAATCTT (((((....))))) .
-8.93

Recall and state the measured folding enthalpy for GGGCAGCGAAAGCTCCCC (((.(((....))).))) .
-18.3

Recall and state the measured folding enthalpy for GTAGGAGAAATCCTAC ((((((....)))))) .
-26.7

Recall and state the measured folding enthalpy for GGGAGCGAAAGCTATCCC ((((((....)))..))) .
-16.6

Recall and state the measured folding enthalpy for GGGGCAGGAAACTACCCC ((((.((....)).)))) .
-29.4

Recall and state the measured folding enthalpy for GATAGCCGAAAGGCAATC (((.(((....))).))) .
-19.1

Recall and state the measured folding enthalpy for GGTATCGAAAGATGTACC ((((((....)))..))) .
-23.2

Recall and state the measured folding enthalpy for GGACTCGAAAGAGAATCC ((((((....)))..))) .
-12.6

Recall and state the measured folding enthalpy for GCCTAAGGAAACTTGGGC (((.(((....))).))) .
-37

Recall and state the measured folding enthalpy for GGCGCTGGAAACAACGCC ((((.((....)).)))) .
-41

Recall and state the measured folding enthalpy for GATCTTTTCTAAGATC ((((((....)))))) .
-36.8

Recall and state the measured folding enthalpy for GATCGATCGCTCGATC ((((((....)))))) .
-37.3

Recall and state the measured folding enthalpy for GCACCTCGAAAGAGTGC (((.(((....)))))) .
-46.4

Recall and state the measured folding enthalpy for GCCCTGCGAAAGCACAGC ((..(((....)))..)) .
-8.54

Recall and state the measured folding enthalpy for GAACCCGGAAACGAGTTC ((((.((....)).)))) .
-27.2

Recall and state the measured folding enthalpy for CGACCCGGAAACGGTCG (((.(((....)))))) .
-30.1

Recall and state the measured folding enthalpy for GACCACGAAAGTGACGTC ((((((....)))..))) .
-16.5

Recall and state the measured folding enthalpy for GTGACTGGAAACGGTTAC ((.((.(....).)).)) .
-8.77

Recall and state the measured folding enthalpy for GATCAGAGATCTGATC ((((((....)))))) .
-24.3

Recall and state the measured folding enthalpy for GACTCCGAAAGGAGGGTC ((((((....)))..))) .
-17

Recall and state the measured folding enthalpy for GAGGCCGAAAGGCCACTC ((((((....)))..))) .
-10.2

Recall and state the measured folding enthalpy for GATCTGCCCCCAGATC ((((((....)))))) .
-34.5

Recall and state the measured folding enthalpy for GGCCGTGGAAACACAGCC (((.(((....))).))) .
-36.8

Recall and state the measured folding enthalpy for TTATCGAAAGATAA (((((....))))) .
-14.7

Recall and state the measured folding enthalpy for GTGACCGAAAGGTGCCAC ((((((....)))..))) .
-12.1

Recall and state the measured folding enthalpy for GAGGGCGAAAGCCAACTC ((((((....)))..))) .
-13

Recall and state the measured folding enthalpy for GATCTAGGACTAGATC ((((((....)))))) .
-39.7

Recall and state the measured folding enthalpy for GTCGTCCGAAAGGATGAC (((.(((....))).))) .
-54.4

Recall and state the measured folding enthalpy for GCAGGCGAAAGCCGTGC ((((((....))).))) .
-17.1
